Assay: BIC plasma pharmacokinetics, Phase 1 open-label single-dose DDI study GS-US-380-3909 (B/F/TAF 50/200/25 mg with antacid or mineral supplements)
Type: in vivo, human
Conditions: both sexes, human, plasma, oral, BIC plasma C24, mean (%CV), Cohort 1 fasted; B/F/TAF + aluminum/magnesium-containing antacid simultaneous; N = 14
quantity-name: concentration at 24 h
# output: numeric value plus its unit

# input Reported concentration at 24 h for "O=C(NCc1c(F)cc(F)cc1F)c1cn2c(c(O)c1=O)C(=O)N1[C@H]3CC[C@H](C3)O[C@@H]1C2" : what is it?
# output 430 ng/mL

---

Test: BIC plasma pharmacokinetics, Phase 1 open-label single-dose DDI study GS-US-380-3909 (B/F/TAF 50/200/25 mg with antacid or mineral supplements)
Assay type: in vivo, human
Conditions: both sexes, human, plasma, oral, BIC plasma Tmax, median (Q1, Q3), Cohort 3 fed; B/F/TAF + ferrous fumarate simultaneous; N = 14
quantity-name: Tmax
# output: numeric value plus its unit

# input Reported Tmax for "O=C(NCc1c(F)cc(F)cc1F)c1cn2c(c(O)c1=O)C(=O)N1[C@H]3CC[C@H](C3)O[C@@H]1C2" : what is it?
# output 4 h

---

Test: BIC plasma pharmacokinetics, Phase 1 open-label single-dose DDI study GS-US-380-3909 (B/F/TAF 50/200/25 mg with antacid or mineral supplements)
Type: in vivo, human
Details: both sexes, human, plasma, oral, BIC VZ/F, mean (%CV), Cohort 1 fasted; B/F/TAF + calcium carbonate simultaneous; N = 14
Method: Eligible participants were adult (18–45 years) males and non-pregnant, non-lactating females in good general health at a screening evaluation performed no more than 28 days before the first study dose. […] Full eligibility criteria are available in the supplement. […] Three dosing cohorts were evaluated (Table 1). […] All samples were analyzed within the timeframe determined using frozen stability storage data. […]
quantity-name: Vd/F (L)
State the answer as a number, implicitly in L.

# input Reported Vd/F for "O=C(NCc1c(F)cc(F)cc1F)c1cn2c(c(O)c1=O)C(=O)N1[C@H]3CC[C@H](C3)O[C@@H]1C2" : what is it?
# output 21.7

---

Assay: BIC plasma pharmacokinetics, Phase 1 open-label single-dose DDI study GS-US-380-3909 (B/F/TAF 50/200/25 mg with antacid or mineral supplements)
Type: in vivo, human
Details: both sexes, human, plasma, oral, BIC plasma C24, mean (%CV), Cohort 1 fasted; B/F/TAF + calcium carbonate simultaneous; N = 14
quantity-name: concentration at 24 h (ng/mL)
State the answer as a number, implicitly in ng/mL.

# input Reported concentration at 24 h for O=C(NCc1c(F)cc(F)cc1F)c1cn2c(c(O)c1=O)C(=O)N1[C@H]3CC[C@H](C3)O[C@@H]1C2 [BIC, bictegravir] : what is it?
# output 1220

---

Experiment: BIC plasma pharmacokinetics, Phase 1 open-label single-dose DDI study GS-US-380-3909 (B/F/TAF 50/200/25 mg with antacid or mineral supplements)
Format: in vivo, human
Settings: both sexes, human, plasma, oral, BIC T1/2, median (Q1, Q3), Cohort 3 fed; B/F/TAF + calcium carbonate simultaneous; N = 14
quantity-name: half-life (h)
State the answer as a number, implicitly in h.

# input Reported half-life for "O=C(NCc1c(F)cc(F)cc1F)c1cn2c(c(O)c1=O)C(=O)N1[C@H]3CC[C@H](C3)O[C@@H]1C2" : what is it?
# output 18.9

---

Assay: BIC plasma pharmacokinetics, Phase 1 open-label single-dose DDI study GS-US-380-3909 (B/F/TAF 50/200/25 mg with antacid or mineral supplements)
Assay type: in vivo, human
Settings: both sexes, human, plasma, oral, Cohort 3 fed; B/F/TAF with calcium carbonate simultaneous; N = 14; read-out: C24, test GLSM
Method: Eligible participants were adult (18–45 years) males and non-pregnant, non-lactating females in good general health at a screening evaluation performed no more than 28 days before the first study dose. […] Full eligibility criteria are available in the supplement. […] Three dosing cohorts were evaluated (Table 1). […] All samples were analyzed within the timeframe determined using frozen stability storage data. […]
quantity-name: concentration at 24 h (ng/mL)
State the answer as a number, implicitly in ng/mL.

# input Reported concentration at 24 h for O=C(NCc1c(F)cc(F)cc1F)c1cn2c(c(O)c1=O)C(=O)N1[C@H]3CC[C@H](C3)O[C@@H]1C2 [BIC, bictegravir] : what is it?
# output 1430

---

Assay: BIC plasma pharmacokinetics, Phase 1 open-label single-dose DDI study GS-US-380-3909 (B/F/TAF 50/200/25 mg with antacid or mineral supplements)
Type: in vivo, human
Conditions: both sexes, human, plasma, oral, BIC plasma Tmax, median (Q1, Q3), Cohort 1 fasted; B/F/TAF + ferrous fumarate simultaneous; N = 14
quantity-name: Tmax
# output: numeric value plus its unit

# input Reported Tmax for "O=C(NCc1c(F)cc(F)cc1F)c1cn2c(c(O)c1=O)C(=O)N1[C@H]3CC[C@H](C3)O[C@@H]1C2" : what is it?
# output 3.5 h

---

Experiment: BIC plasma pharmacokinetics, Phase 1 open-label single-dose DDI study GS-US-380-3909 (B/F/TAF 50/200/25 mg with antacid or mineral supplements)
Format: in vivo, human
Conditions: both sexes, human, plasma, oral, Cohort 1 fasted; B/F/TAF with calcium carbonate simultaneous; N = 14; read-out: C24, test GLSM
quantity-name: concentration at 24 h

# input Reported concentration at 24 h for "O=C(NCc1c(F)cc(F)cc1F)c1cn2c(c(O)c1=O)C(=O)N1[C@H]3CC[C@H](C3)O[C@@H]1C2" : what is it?
# output 1130 ng/mL

---

Assay: BIC plasma pharmacokinetics, Phase 1 open-label single-dose DDI study GS-US-380-3909 (B/F/TAF 50/200/25 mg with antacid or mineral supplements)
Assay type: in vivo, human
Conditions: both sexes, human, plasma, oral, BIC plasma AUClast, mean (%CV), Cohort 1 fasted; B/F/TAF + calcium carbonate simultaneous; N = 14
quantity-name: AUC(0-t) (ng·h/mL)
State the answer as a number, implicitly in ng·h/mL.

# input Reported AUC(0-t) for "O=C(NCc1c(F)cc(F)cc1F)c1cn2c(c(O)c1=O)C(=O)N1[C@H]3CC[C@H](C3)O[C@@H]1C2" : what is it?
# output 80400

---

Test: BIC plasma pharmacokinetics, Phase 1 open-label single-dose DDI study GS-US-380-3909 (B/F/TAF 50/200/25 mg with antacid or mineral supplements)
Assay type: in vivo, human
Details: both sexes, human, plasma, oral, BIC plasma AUClast, mean (%CV), Cohort 1 fasted; B/F/TAF + aluminum/magnesium-containing antacid simultaneous; N = 14
quantity-name: AUC(0-t) (ng·h/mL)
State the answer as a number, implicitly in ng·h/mL.

# input Reported AUC(0-t) for "O=C(NCc1c(F)cc(F)cc1F)c1cn2c(c(O)c1=O)C(=O)N1[C@H]3CC[C@H](C3)O[C@@H]1C2" : what is it?
# output 26200

---

Test: BIC plasma pharmacokinetics, Phase 1 open-label single-dose DDI study GS-US-380-3909 (B/F/TAF 50/200/25 mg with antacid or mineral supplements)
Type: in vivo, human
Settings: both sexes, human, plasma, oral, BIC plasma Tmax, median (Q1, Q3), Cohort 3 fed; B/F/TAF + aluminum/magnesium-containing antacid simultaneous; N = 14
quantity-name: Tmax (h)
State the answer as a number, implicitly in h.

# input Reported Tmax for "O=C(NCc1c(F)cc(F)cc1F)c1cn2c(c(O)c1=O)C(=O)N1[C@H]3CC[C@H](C3)O[C@@H]1C2" : what is it?
# output 3.5

---

Test: BIC plasma pharmacokinetics, Phase 1 open-label single-dose DDI study GS-US-380-3909 (B/F/TAF 50/200/25 mg with antacid or mineral supplements)
Assay type: in vivo, human
Details: both sexes, human, plasma, oral, Cohort 2 fasted; B/F/TAF 2 h after aluminum/magnesium-containing antacid; N = 14; read-out: C24, test GLSM
quantity-name: concentration at 24 h (ng/mL)
State the answer as a number, implicitly in ng/mL.

# input Reported concentration at 24 h for O=C(NCc1c(F)cc(F)cc1F)c1cn2c(c(O)c1=O)C(=O)N1[C@H]3CC[C@H](C3)O[C@@H]1C2 [BIC, bictegravir] : what is it?
# output 900

---

Experiment: BIC plasma pharmacokinetics, Phase 1 open-label single-dose DDI study GS-US-380-3909 (B/F/TAF 50/200/25 mg with antacid or mineral supplements)
Format: in vivo, human
Settings: both sexes, human, plasma, oral, BIC plasma AUClast, mean (%CV), Cohort 1 fasted; B/F/TAF alone; N = 14
quantity-name: AUC(0-t) (µg·h/mL)
State the answer as a number, implicitly in µg·h/mL.

# input Reported AUC(0-t) for "O=C(NCc1c(F)cc(F)cc1F)c1cn2c(c(O)c1=O)C(=O)N1[C@H]3CC[C@H](C3)O[C@@H]1C2" : what is it?
# output 117

Each recorded value in this set is attributed to paper PMC12777568.
